For each of the compounds below, state its pIC50.
# target: human recombinant P2X7 receptor (Homo sapiens, UniProt Q99572)
# Sequence (Q99572 whole entry): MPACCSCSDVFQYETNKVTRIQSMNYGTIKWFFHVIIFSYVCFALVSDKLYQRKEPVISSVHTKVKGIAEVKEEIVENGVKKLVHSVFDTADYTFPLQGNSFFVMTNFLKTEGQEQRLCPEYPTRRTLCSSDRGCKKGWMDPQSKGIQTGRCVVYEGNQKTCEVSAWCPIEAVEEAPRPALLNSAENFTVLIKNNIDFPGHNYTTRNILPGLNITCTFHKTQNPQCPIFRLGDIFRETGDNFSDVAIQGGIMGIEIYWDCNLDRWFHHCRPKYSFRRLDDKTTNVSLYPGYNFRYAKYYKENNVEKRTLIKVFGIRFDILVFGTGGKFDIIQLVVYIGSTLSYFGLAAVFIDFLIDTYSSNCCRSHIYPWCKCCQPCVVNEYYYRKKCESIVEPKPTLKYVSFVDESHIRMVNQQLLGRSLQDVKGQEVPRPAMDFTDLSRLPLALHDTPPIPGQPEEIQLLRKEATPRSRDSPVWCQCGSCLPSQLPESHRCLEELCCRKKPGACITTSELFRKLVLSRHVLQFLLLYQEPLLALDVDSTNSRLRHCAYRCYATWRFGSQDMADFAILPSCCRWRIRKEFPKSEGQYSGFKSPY
# experimentNotes: YO-PRO assay (YO-PRO-1 uptake) in HEK cells stably expressing P2X7
# conditions: HEK-293 cells expressing human recombinant P2X7 receptor; ATP 250 μM, 90 minutes; YO-PRO-1 fluorescence (FLIPR tetra); read-out: IC50 (antagonistic activity with respect to the P2X7 receptor)
Friendly reminder that pIC50 comes from taking -log10 of the concentration in mol/L.

Provide pIC50, tested on human recombinant P2X7 receptor (Homo sapiens, UniProt Q99572), for O=C(NCC1(O)CCCCC1)c1cc(Oc2cccc(F)n2)ccc1Cl .
7.43

Provide pIC50, tested on human recombinant P2X7 receptor (Homo sapiens, UniProt Q99572), for CN(c1ccc(Cl)c(C(=O)NCC2(O)CCCCC2)c1)c1cc[nH]c(=O)n1 .
7.46

Provide pIC50, tested on human recombinant P2X7 receptor (Homo sapiens, UniProt Q99572), for CN(c1ccc(Cl)c(C(=O)NCC2(O)CCCCC2)c1)c1ccnc(=O)n1C .
6.97

Provide pIC50, tested on human recombinant P2X7 receptor (Homo sapiens, UniProt Q99572), for CN(C)c1nccc(Oc2ccc(Cl)c(C(=O)NCC3(O)CCCCC3)c2)n1 .
6.37

Provide pIC50, tested on human recombinant P2X7 receptor (Homo sapiens, UniProt Q99572), for CN(c1ccc(Cl)c(C(=O)N[C@H](CO)C2CCCCC2)c1)c1cc[nH]c(=O)n1 .
7.48

Provide pIC50, tested on human recombinant P2X7 receptor (Homo sapiens, UniProt Q99572), for COc1nccc(Sc2ccc(Cl)c(C(=O)NCC3(O)CCCCC3)c2)n1 .
7.13

Provide pIC50, tested on human recombinant P2X7 receptor (Homo sapiens, UniProt Q99572), for O=C(NCC1(O)CCCCC1)c1cc(Oc2cccc(=O)[nH]2)ccc1Cl .
7.37

Provide pIC50, tested on human recombinant P2X7 receptor (Homo sapiens, UniProt Q99572), for CSc1cc(N(C)c2ccc(Cl)c(C(=O)NCC3(O)CCCCC3)c2)ncn1 .
6.69

Provide pIC50, tested on human recombinant P2X7 receptor (Homo sapiens, UniProt Q99572), for CN(C)c1nccc(N(C)c2ccc(Cl)c(C(=O)NCC3(O)CCCCC3)c2)n1 .
6.75

Provide pIC50, tested on human recombinant P2X7 receptor (Homo sapiens, UniProt Q99572), for O=C(NCC1(O)CCCCC1)c1cc(Oc2cc(F)ccn2)ccc1Cl .
7.34

Provide pIC50, tested on human recombinant P2X7 receptor (Homo sapiens, UniProt Q99572), for CC(O)(c1ccc(Cl)c(C(=O)NCC2(O)CCCCC2)c1)c1cc[nH]c(=O)n1 (single isomer, unassigned) [Example 158] .
7.18

Provide pIC50, tested on human recombinant P2X7 receptor (Homo sapiens, UniProt Q99572), for O=C(NCC1(O)CCCCC1)c1cc(Nc2ncccn2)ccc1Cl .
6.49
